# subject.of.test: CYP3A4 (Homo sapiens (Human), UniProt P08684)
# Sequence (P08684 whole entry): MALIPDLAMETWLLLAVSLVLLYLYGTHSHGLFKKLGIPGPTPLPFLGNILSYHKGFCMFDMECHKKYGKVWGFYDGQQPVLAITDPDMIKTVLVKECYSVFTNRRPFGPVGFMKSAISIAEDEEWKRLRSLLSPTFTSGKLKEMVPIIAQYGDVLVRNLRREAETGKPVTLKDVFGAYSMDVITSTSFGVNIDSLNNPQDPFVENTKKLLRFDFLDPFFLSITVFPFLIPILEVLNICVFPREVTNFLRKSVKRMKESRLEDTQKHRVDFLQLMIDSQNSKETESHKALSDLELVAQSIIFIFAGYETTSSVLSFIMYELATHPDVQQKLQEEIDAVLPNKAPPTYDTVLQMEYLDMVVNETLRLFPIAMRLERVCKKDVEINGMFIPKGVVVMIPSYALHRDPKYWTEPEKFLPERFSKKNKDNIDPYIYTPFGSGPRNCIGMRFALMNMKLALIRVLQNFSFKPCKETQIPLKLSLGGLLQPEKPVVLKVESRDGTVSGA
# measurement.protocol: TDI method: time-dependent CYP inhibition, IC50 shift -NADPH/+NADPH
# Type: in vitro ADME
# condition.description: IC50 (-NADPH) divided by IC50 (+NADPH), 30 min pre-incubation, human liver microsomes
observation.type: Time-dependent CYP3A4 inhibition-shift after 30 min with NADPH (x)
Please give a number only; it is taken to be in x.

Examples from the recorded data:
>  <molecule>
COc1ccc(F)cc1-c1cnccc1C(=O)Nc1nnc(OCc2ccc(C#N)cc2)s1

>  <subject.of.test>
CYP3A4 (Homo sapiens (Human), UniProt P08684)

>  <value.observed>
1

$$$$
>  <molecule>
COc1ccccc1-c1cnccc1C(=O)Nc1nnc(OCc2ccc(C#N)cc2)s1

>  <subject.of.test>
CYP3A4 (Homo sapiens (Human), UniProt P08684)

>  <value.observed>
3.6

$$$$
>  <molecule>
COc1ccccc1-c1cnccc1C(=O)Nc1nnc(C#Cc2ccc(Cl)cc2)s1 [Compound 474]

>  <subject.of.test>
CYP3A4 (Homo sapiens (Human), UniProt P08684)

>  <value.observed>
1

$$$$

Consider now this further molecule.
Record C=C(C1=CN=CCC1C(=O)Nc1nnc(CCC2CC2)s1)/C(=C\N=C\Cl)OC (centres unmarked) , field Time-dependent CYP3A4 inhibition-shift after 30 min with NADPH: 1

* * *

# subject.of.test: PolQ ATPase enzyme (1-894) (Homo sapiens (Human), UniProt O75417)
# Sequence (O75417 1-894): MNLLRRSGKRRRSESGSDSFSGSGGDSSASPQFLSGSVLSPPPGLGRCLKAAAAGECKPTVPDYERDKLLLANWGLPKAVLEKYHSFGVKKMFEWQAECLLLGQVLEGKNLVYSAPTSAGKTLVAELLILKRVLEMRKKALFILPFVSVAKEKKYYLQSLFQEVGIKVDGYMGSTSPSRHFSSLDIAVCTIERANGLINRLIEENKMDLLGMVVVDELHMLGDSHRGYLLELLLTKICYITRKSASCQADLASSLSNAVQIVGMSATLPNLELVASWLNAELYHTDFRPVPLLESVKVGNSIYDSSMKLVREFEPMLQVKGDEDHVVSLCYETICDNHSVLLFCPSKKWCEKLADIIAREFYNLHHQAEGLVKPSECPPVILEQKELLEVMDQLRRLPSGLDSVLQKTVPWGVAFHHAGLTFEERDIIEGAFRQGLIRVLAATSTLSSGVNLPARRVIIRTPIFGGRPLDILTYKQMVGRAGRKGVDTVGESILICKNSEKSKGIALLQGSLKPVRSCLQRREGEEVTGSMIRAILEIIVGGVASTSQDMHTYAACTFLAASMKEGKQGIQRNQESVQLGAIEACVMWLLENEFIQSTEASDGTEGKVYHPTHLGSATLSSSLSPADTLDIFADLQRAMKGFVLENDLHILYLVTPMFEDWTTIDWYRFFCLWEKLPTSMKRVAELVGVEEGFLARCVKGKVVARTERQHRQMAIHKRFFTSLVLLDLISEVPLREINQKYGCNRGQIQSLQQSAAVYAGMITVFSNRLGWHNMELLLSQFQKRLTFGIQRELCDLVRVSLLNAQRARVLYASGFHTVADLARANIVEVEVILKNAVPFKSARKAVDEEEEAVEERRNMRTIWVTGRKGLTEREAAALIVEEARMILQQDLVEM
# measurement.protocol: Polθ ATPase enzymatic assay (0.5 nM enzyme concentration), ADP-Glo
# Format: biochemical
# condition.description: average IC50; 0.5 nM PolQ ATPase enzyme (1-894)
Below, each entry is listed alongside its reported IC50.
Please give a number only; it is taken to be in nM.

Record COc1cnc(CF)cc1-c1cnccc1C(=O)Nc1nnc(C#CC2CC2)s1 , field IC50: 1.8

* * *

# subject.of.test: Polθ ATPase enzyme (1-894) (Homo sapiens (Human))
# Sequence (O75417 1-894): as the sequence (O75417 1-894) above
# measurement.protocol: Polθ ATPase enzymatic assay (3 nM enzyme concentration), ADP-Glo
# Format: biochemical
# condition.description: read-out: IC50 (nM) [PolQ] 3 nM; average IC50; 3 nM PolQ ATPase enzyme (1-894)
Returns: string. Value is true (1) if measured IC50 is below 30 nM, and false (0) if it is greater than or equal to it.

Consider the worked cases shown below.
>  <compound>
COc1ccc(C#N)cc1-c1cnccc1C(=O)Nc1nnc(C#CC2(N)CC2)s1

>  <subject.of.test>
Polθ ATPase enzyme (1-894) (Homo sapiens (Human))

>  <label.value>
false (0)

$$$$
>  <compound>
COc1ccc(F)cc1-c1cn(C)c(=O)cc1C(=O)Nc1nnc(C#Cc2cnn(C3CCCNC3)c2)s1 (stereo not drawn)

>  <subject.of.test>
Polθ ATPase enzyme (1-894) (Homo sapiens (Human))

>  <label.value>
false (0)

$$$$
>  <compound>
COc1ccc(F)cc1-c1cn(C)c(=O)cc1C(=O)Nc1nnc(C#CC2CC2)s1

>  <subject.of.test>
Polθ ATPase enzyme (1-894) (Homo sapiens (Human))

>  <label.value>
true (1)

$$$$
>  <compound>
COc1ccc(F)cc1-n1cncc1C(=O)Nc1nnc(C#CC2CC2)s1

>  <subject.of.test>
Polθ ATPase enzyme (1-894) (Homo sapiens (Human))

>  <label.value>
true (1)

$$$$
>  <compound>
COc1ccc(F)cc1-c1cnccc1C(=O)Nc1nnc([C@@H]2C[C@H]2c2ccn(C)n2)s1

>  <subject.of.test>
Polθ ATPase enzyme (1-894) (Homo sapiens (Human))

>  <label.value>
true (1)

$$$$
>  <compound>
COc1ccc(F)cc1-c1cnccc1C(=O)Nc1nnc([C@@H]2C[C@H]2c2nc3ccccc3n2C)s1

>  <subject.of.test>
Polθ ATPase enzyme (1-894) (Homo sapiens (Human))

>  <label.value>
false (0)

$$$$
>  <compound>
COc1ccc(C#N)cc1-c1cn(C)c(=O)cc1C(=O)Nc1nnc(C#CC2CC2)s1

>  <subject.of.test>
Polθ ATPase enzyme (1-894) (Homo sapiens (Human))

>  <label.value>
true (1)

$$$$
>  <compound>
COc1ccc(C#N)cc1-c1cnccc1C(=O)Nc1nnc(C#CC2CC2)s1

>  <subject.of.test>
Polθ ATPase enzyme (1-894) (Homo sapiens (Human))

>  <label.value>
true (1)

$$$$

# input for lookup
Check if IC50 falls below 30 nM for COc1cnc(Cl)cc1-c1cnccc1C(=O)Nc1nnc([C@@H]2C[C@H]2c2ccc(C#N)cc2)s1 .
true (1)
